Biological target: Tyrosine-protein phosphatase non-receptor type 1 (Homo sapiens)
Sequence (P18031 whole entry): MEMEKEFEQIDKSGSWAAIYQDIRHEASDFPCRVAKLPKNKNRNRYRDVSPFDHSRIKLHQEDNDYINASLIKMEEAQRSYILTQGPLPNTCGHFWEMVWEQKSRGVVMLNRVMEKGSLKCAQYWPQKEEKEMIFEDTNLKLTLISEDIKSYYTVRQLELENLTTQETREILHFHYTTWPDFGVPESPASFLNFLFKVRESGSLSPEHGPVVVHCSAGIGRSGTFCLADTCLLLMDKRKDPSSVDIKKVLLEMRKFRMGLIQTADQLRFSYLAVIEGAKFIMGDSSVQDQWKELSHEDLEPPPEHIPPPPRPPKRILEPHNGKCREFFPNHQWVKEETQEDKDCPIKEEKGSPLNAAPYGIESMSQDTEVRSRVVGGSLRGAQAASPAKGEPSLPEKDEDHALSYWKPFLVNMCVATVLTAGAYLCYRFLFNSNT
So I've got a bunch of compounds here, and I need their pIC50 values.
Numbers only, as −log10 of the molar value.

These recorded examples may help you get a feel for the data.
CCCC/C=C\CCCCCCCCCC1(O)CC(=O)c2c(O)c(C)c(O)c(C)c2O1 (stereo not given) | 5.74
CC/C=C\C/C=C\C/C=C\CCCCCCCC1(O)CC(=O)c2c(O)cc(O)cc2O1 (stereo not given) | 6.35
CC/C=C\C/C=C\C/C=C\CCCCCCCC1(O)CC(=O)c2c(O)c(C)c(O)c(C)c2O1 (stereo not given) | 5.80

Provide reported pIC50 for each item, in the same order as listed.
1. CCCCC/C=C\C/C=C\CCCCCCCC1(O)CC(=O)c2c(O)c(C)c(O)c(C)c2O1 (stereo not given)
2. CCCCCCCCCCCCCCCC1(O)CC(=O)c2c(O)cc(O)cc2O1 (stereo not given)

1: 5.57; 2: 5.70
